# System: CYP2A6 over CYP2D6
# assay overview: Selectivity for CYP2A6 over CYP2D6
# stated conditions: human
Reported selectivity ratio maps to class as: low: < 20; medium: ≥ 20 and < 80; high: ≥ 80

Use these answered entries as a reference point.
{"smiles str": "c1cncc(-c2ccsc2)c1", "cat": "high"}
{"smiles str": "NCc1ccc(-c2cccnc2)o1", "cat": "medium"}
{"smiles str": "NCc1cc(-c2cccnc2)n[nH]1", "cat": "high"}

## Input Hi there! Could you help me figure out the category for "c1cncc(-c2cc[nH]n2)c1" please?
## Output low

## Input Which band does "CC(=O)SCc1ccc(-c2cccnc2)o1" fall in?
## Output medium

## Input Which class is correct for the following compound? "Cc1cscc1-c1ccccc1"
## Output medium

## Input Into which category would you place "NCc1ccc(-c2ccccc2)s1" ?
## Output high

## Input Which category fits this record: "CN(C)Cc1ccc(-c2cccnc2)s1"
## Output low

## Input Band of "Cc1ccsc1-c1ccc(F)nc1" ?
## Output high

## Input Bin this entry: "NCc1ccc(-c2ccccc2)o1"
## Output medium

## Input Which class does "SCc1ccc(-c2cccnc2)o1" fall in?
## Output low

## Input Which class holds "c1cncc(-c2c[nH]cn2)c1" ?
## Output high
